# target-system: T1, T cell Immunoglobulin- and Mucin domain-containing molecule 3 (TIM3), human, on cells (human, UniProt Q8TDQ0 22-301)
# T1 construct: TIM3 as carried by human cell lines (Pfeiffer, Daudi, CMK) and by primary cells of patients; also called HAVCR2; KIM-3
# T1 sequence: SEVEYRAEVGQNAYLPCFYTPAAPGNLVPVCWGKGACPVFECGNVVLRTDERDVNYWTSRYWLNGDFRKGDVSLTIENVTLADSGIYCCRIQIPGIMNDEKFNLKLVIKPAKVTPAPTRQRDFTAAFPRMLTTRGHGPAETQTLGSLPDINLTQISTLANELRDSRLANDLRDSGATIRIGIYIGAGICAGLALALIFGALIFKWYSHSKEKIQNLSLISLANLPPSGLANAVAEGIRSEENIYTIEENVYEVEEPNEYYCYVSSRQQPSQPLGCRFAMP
# experimental-protocol: flow cytometry; cells not named in the table (Example 5 uses Pfeiffer cells)
Mark 1 for reported GeoMean (Intensity of TIM3 binding) of 100 or greater; mark -1 for anything smaller.

Worked examples follow.
1.7E10.12-BZAP (antibody, V domains shown, Biotinylated 1.7E10 (mouse IgG1,k) conjugated to streptavidin-saporin (SAv-ZAP)) VH: EVKLLESGGGLVQPGGSLKLSCAASGFDFSRYWMSWVRQAPGKGLEWIGEINPDSSTINYTPSLKDKFIISRDNAKNTLFLQMSKVRSEDTALYYCARPSYDGYYGYAMDYWGQGTSVTVSS VL: DIVLTQSPASLAVSLGQRATISCRASESVDSYGKSFMHWYQQKPGQPPKLLIYRASNLESGIPARFSGSGSRTDFTLTINPVEADDVATYYCQQSNEDPYTFGGGTKLEIKR: 1
27.12E12-BZAP (antibody, V domains shown, Biotinylated 27.12E12 (mouse IgG2b,k) conjugated to streptavidin-saporin (SAv-ZAP)) VH: EVQLQQSGAELVRPGALVKLSCKASGFNIKDYYMYWMKQRPEQGLEWIGWIDPENVKTIYDPKFQGRATLTADTSSNTAYLQLSSLTSEDTAVYYCTRDFGYVGFFDVWGAGTTVTVSS VL: DIVMTQSQKFMSTSVGDRVSVNCKASQNVGTNVVWYQQKPGQSPKALIYSASYRYSGVPDRFTGSGSGTDFTLTISTVQSEDLAEYFCQQYNSYPLTFGGGTKLEIKR: 1
9.1G12.8-Biotin (antibody, V domains shown, 9.1G12 (mouse IgG2b,l) biotinylated) VH: EVMLVESGGGLVKPGGSLKLSCAASGFTFSSYAMSWVRQTPERKLEWVATISSGGTYTYYPDSVKGRFTISRDNAKNRLYLQMSGLRSEGTAMYYCVRPDYTHDDGGFAYWGQGTLVTVSA VL: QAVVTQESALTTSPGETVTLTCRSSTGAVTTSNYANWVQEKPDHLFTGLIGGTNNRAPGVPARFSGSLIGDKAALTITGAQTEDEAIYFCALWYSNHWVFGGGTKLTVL: -1
6.14B9-BZAP (antibody, V domains shown, Biotinylated 6.14B9 (mouse IgG1,k) conjugated to streptavidin-saporin (SAv-ZAP)) VH: DVQLQESGPGLVKPSQSLSLTCTVTGYSITSDYAWNWIRQFPGNKLEWMGYISYSGSISYNPSLKSRISITRDTSKNQFFLQLNSVTTEDTATYYCARSGRLRRDFDYWGQGTTLT VL: DIQMTQSPSSLSASLGERVSLTCRASQEISGYLSWLQQKPDGTIKRLIYAASTLDSGVPKRFSGSRSGSDYSLTISSLESEDFADYYCLQYASYPLTFGAGTKLELK: -1
27.12E12-Biotin (antibody, V domains shown, 27.12E12 (mouse IgG2b,k) biotinylated) VH: EVQLQQSGAELVRPGALVKLSCKASGFNIKDYYMYWMKQRPEQGLEWIGWIDPENVKTIYDPKFQGRATLTADTSSNTAYLQLSSLTSEDTAVYYCTRDFGYVGFFDVWGAGTTVTVSS VL: DIVMTQSQKFMSTSVGDRVSVNCKASQNVGTNVVWYQQKPGQSPKALIYSASYRYSGVPDRFTGSGSGTDFTLTISTVQSEDLAEYFCQQYNSYPLTFGGGTKLEIKR: 1
1.7E10.12-Biotin (antibody, V domains shown, 1.7E10 (mouse IgG1,k) biotinylated with the EZ-link Sulfo NHS-LC-Biotinylated kit) VH: EVKLLESGGGLVQPGGSLKLSCAASGFDFSRYWMSWVRQAPGKGLEWIGEINPDSSTINYTPSLKDKFIISRDNAKNTLFLQMSKVRSEDTALYYCARPSYDGYYGYAMDYWGQGTSVTVSS VL: DIVLTQSPASLAVSLGQRATISCRASESVDSYGKSFMHWYQQKPGQPPKLLIYRASNLESGIPARFSGSGSRTDFTLTINPVEADDVATYYCQQSNEDPYTFGGGTKLEIKR: 1

Q) Decide: GeoMean (Intensity of TIM3 binding) of 9.1G12.8-BZAP (antibody, V domains shown, Biotinylated 9.1G12 (mouse IgG2b,l) conjugated to streptavidin-saporin (SAv-ZAP); also called 9.1G12-BZAP) VH: EVMLVESGGGLVKPGGSLKLSCAASGFTFSSYAMSWVRQTPERKLEWVATISSGGTYTYYPDSVKGRFTISRDNAKNRLYLQMSGLRSEGTAMYYCVRPDYTHDDGGFAYWGQGTLVTVSA VL: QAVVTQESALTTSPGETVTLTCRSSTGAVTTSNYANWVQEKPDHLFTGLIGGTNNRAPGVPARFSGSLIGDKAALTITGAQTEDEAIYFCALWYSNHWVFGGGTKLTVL >= 100?
A) 1

Q) Reported GeoMean (Intensity of TIM3 binding) at or above 100? 6.14B9-Biotin (antibody, V domains shown, 6.14B9 (mouse IgG1,k) biotinylated) VH: DVQLQESGPGLVKPSQSLSLTCTVTGYSITSDYAWNWIRQFPGNKLEWMGYISYSGSISYNPSLKSRISITRDTSKNQFFLQLNSVTTEDTATYYCARSGRLRRDFDYWGQGTTLT VL: DIQMTQSPSSLSASLGERVSLTCRASQEISGYLSWLQQKPDGTIKRLIYAASTLDSGVPKRFSGSRSGSDYSLTISSLESEDFADYYCLQYASYPLTFGAGTKLELK
A) -1

Q) In plain terms: is recorded GeoMean (Intensity of TIM3 binding) at least 100 for 7.10F6 (antibody, IgG1, V domains shown, also called 7.10F6.1; 7.10F6.1-pure) VH: EVQLVESGGGLVQPGGSLKLSCAASGFIFSGYGMSWVRQTPDKRLELVAIINSNGGSVDYPDSVKGRVTISRDNAKNTLYLQMSSLKSEDTAMYYCARIYYRCMDYWGQGTSVTVSS VL: NIMMTQSPSSLAVSAGEKVTMSCKSSQSLLYSSNQKNYLAWYQQKPGQSPKLLIYWASARESGVPDRFTGGGSGTDFTLTISSVQAEDLAVYYCHQYLSSYTFGGGTKLEIKR ?
A) 1
